Target: CatK (Homo sapiens)
Construct: made in house; host or cells: Pichia pastoris
Sequence (P43235 115-329): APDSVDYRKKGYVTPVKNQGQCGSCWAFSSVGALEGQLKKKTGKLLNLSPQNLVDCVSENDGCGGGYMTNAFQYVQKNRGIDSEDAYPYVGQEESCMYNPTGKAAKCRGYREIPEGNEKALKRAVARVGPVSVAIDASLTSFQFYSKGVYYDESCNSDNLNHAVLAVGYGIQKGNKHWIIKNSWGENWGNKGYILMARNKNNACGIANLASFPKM
Assay: CatK collagenase assay (type I collagen degradation, SDS-PAGE)
Assay type: biochemical
Details: 400 nM CatK, soluble bovine type I collagen 0.6 mg/mL, pH 5.5, 28°C, 4 h; read-out: Collagenase IC50
Recorded measurements of IC50, one per entry

Molecule	Unit text	IC50
CC1CN=C(c2cccc(NC(=O)c3ccc(C(=O)Nc4cccc(C5=NCC(C)N5)c4)c(N)c3)c2)N1 (stereo not drawn) [compound 80116]	µM	89
CSCCC(NCC(N)Cc1ccc2ccccc2c1)C(=O)NCc1cccc(C(=O)NC(CNC(CC(C)C)C(=O)O)Cc2ccccc2)c1 (stereo not drawn) [compound 719315]	µM	88

---

Listed here: items and their measured IC50.
target: CatK (Homo sapiens); construct: made in house; host or cells: Pichia pastoris; assay: CatK collagenase assay (type I collagen degradation, SDS-PAGE); assay type: biochemical; conditions: Collagenase IC50 with 0.005% Triton X-100, in the presence of detergent, 0.005% Triton X-100
Reported metric: IC50

CN(C)CCCNc1ccc2ncn3c4ccccc4c(=O)c1c23 5.2 µM
CCc1cc2nc3c(=O)[nH]c(=O)nc-3n(CCN(CCO)CCO)c2cc1CC 5.1 µM

---

Below, each entry is listed alongside its reported inhibition at 100 µM.
Molecular target: CatK (Homo sapiens)
Construct: made in house; host or cells: Pichia pastoris
Sequence (P43235 115-329): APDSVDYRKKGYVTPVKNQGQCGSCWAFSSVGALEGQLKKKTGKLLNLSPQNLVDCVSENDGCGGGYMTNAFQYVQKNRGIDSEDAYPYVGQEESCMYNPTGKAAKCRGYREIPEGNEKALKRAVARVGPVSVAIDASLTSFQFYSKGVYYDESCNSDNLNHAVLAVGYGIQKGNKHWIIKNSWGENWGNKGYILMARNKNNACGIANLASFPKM
Assay: Z-Phe-Arg-MCA cleavage assay with CatK
Assay type: biochemical
Details: 100 μM inhibitor, 5 nM CatK, 5 μM substrate, pH 5.5
Reported metric: inhibition at 100 µM (%)

Compound	Recorded value
CCN(CC)CC1=C/C(=N/NC2=C3C=CC(=O)C(NNc4ccc(O)c(CN(CC)CC)c4)=C3C=CC2=O)C=CC1=O.Cl [compound 9]	3.2
CN(C)CCCNc1ccc2ncn3c4ccccc4c(=O)c1c23 [compound 3]	5
CCc1cc2nc3c(=O)[nH]c(=O)nc-3n(CCN(CCO)CCO)c2cc1CC [compound 1]	9.5

Values were extracted from paper PMC5663397.
